molecular target: Glyceraldehyde-3-phosphate dehydrogenase (Homo sapiens, UniProt P04406); assay: Inhibition of Glyceraldehyde-3-phosphate dehydrogenase in human erythrocytes.
Sequence (P04406 whole entry): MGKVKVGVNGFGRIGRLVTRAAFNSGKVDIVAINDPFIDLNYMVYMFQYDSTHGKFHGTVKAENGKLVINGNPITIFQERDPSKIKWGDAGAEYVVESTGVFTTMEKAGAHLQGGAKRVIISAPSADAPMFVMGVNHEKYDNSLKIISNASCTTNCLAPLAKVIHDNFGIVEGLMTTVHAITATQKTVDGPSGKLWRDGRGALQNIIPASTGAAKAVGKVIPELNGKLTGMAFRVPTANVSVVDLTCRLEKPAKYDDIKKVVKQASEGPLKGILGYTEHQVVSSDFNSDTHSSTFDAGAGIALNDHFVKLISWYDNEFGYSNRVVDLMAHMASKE
Reported IC50 values are given for each entry in this list.

Recorded IC50, per entry:
INSERT INTO measurements (molecule, assayed_target, value_reported) VALUES
  ('Nc1ncnc2c1ncn2[C@@H]1O[C@H](CO)[C@@H](O)[C@H]1NCc1ccccc1', 'Glyceraldehyde-3-phosphate dehydrogenase (Homo sapiens, UniProt P04406)', '> 10000 µM'),
  ('Nc1ncnc2c1nc(SC1CCCCC1)n2C1O[C@H](CO)[C@@H](O)[C@H]1O (stereo partly drawn)', 'Glyceraldehyde-3-phosphate dehydrogenase (Homo sapiens, UniProt P04406)', '> 2000 µM'),
  ('Nc1ncnc2c1nc(Br)n2[C@@H]1O[C@H](CO)[C@@H](O)[C@H]1NC(=O)c1ccccc1', 'Glyceraldehyde-3-phosphate dehydrogenase (Homo sapiens, UniProt P04406)', '> 10000 µM'),
  ('Nc1ncnc2c1ncn2[C@@H]1O[C@H](CO)[C@@H](O)[C@H]1NC(=O)c1cccc(Cl)c1', 'Glyceraldehyde-3-phosphate dehydrogenase (Homo sapiens, UniProt P04406)', '> 2000 µM'),
  ('Cc1nc(N)c2[nH]cnc2n1', 'Glyceraldehyde-3-phosphate dehydrogenase (Homo sapiens, UniProt P04406)', '> 10000 µM');

-- ask Tell me the measured IC50 of COc1cccc(C(=O)N[C@@H]2[C@H](O)[C@@H](CO)O[C@H]2n2cnc3c(N)ncnc32)c1 , please.
-- reply > 10000 µM

-- ask Tell me the measured IC50 of Nc1ncnc2c1nc(-c1cccs1)n2[C@@H]1O[C@H](CO)[C@@H](O)[C@H]1NC(=O)c1ccccc1 , please.
-- reply 1200 µM

-- ask Tell me the measured IC50 of CCc1ccc(-c2ccc(C(=O)NC[C@H]3OC(n4cnc5c(N)ncnc54)[C@H](O)[C@@H]3O)cc2)cc1 (stereo partly drawn) , please.
-- reply > 2000 µM
